Test system: SK-OV-3
Test: Anticancer activity against Homo sapiens (human) SKOV3 cells after 48 hr by SRB assay
Format: functional
Settings: SK-OV-3, 48 h
measurement label: LC50

Quote LC50 reported for `COc1ccc(OC)c(/C=C/C(=O)N/N=C/c2ccccc2)c1` please. > 100 µM

Quote LC50 reported for `COc1ccc(OC)c(/C=C/c2nnc(S)n2-c2ccc(Cl)cc2)c1` please. > 100 µM

Quote LC50 reported for `COc1ccc(OC)c(/C=C/C(=O)N/N=C/c2ccc(Cl)cc2)c1` please. > 100 µM

Quote LC50 reported for `COc1ccc(OC)c(/C=C/c2nnc(Nc3ccc(Cl)cc3)o2)c1` please. 60.6 µM

* * *

Test system: HCT-15
Experiment: Growth inhibition of Homo sapiens (human) HCT15 cells at 10 uM after 48 hr by SRB assay
Format: functional
Settings: HCT-15, 48 h, read-out: GI
I'd appreciate it if you could supply inhibition of growth at 10 µM values for the items below.
Answer shape: numeric part, then the unit.

Quote inhibition of growth at 10 µM reported for `COc1ccc(OC)c(/C=C/c2nnc(SC)n2-c2ccc(Cl)cc2)c1` please. 41.1%

Quote inhibition of growth at 10 µM reported for `COc1ccc(OC)c(/C=C/C(=O)N/N=C/c2ccccc2)c1` please. 58%

Quote inhibition of growth at 10 µM reported for `COc1ccc(OC)c(/C=C/C(=O)N/N=C/c2ccc(Cl)cc2)c1` please. 70.6%

Quote inhibition of growth at 10 µM reported for `COc1ccc(OC)c(/C=C/c2nnc(S)n2-c2ccc(Cl)cc2)c1` please. 58.8%

* * *

Test system: K562
Assay: Anticancer activity against Homo sapiens (human) K562 cells after 48 hr by SRB assay
Format: functional
Conditions: K562, 48 h
measurement label: GI50 (nM)
Just the number please, in nM, no unit attached.

Quote GI50 reported for `COc1ccc(OC)c(/C=C/c2nnc(Nc3ccc(Cl)cc3)o2)c1` please. 92800

Quote GI50 reported for `COc1ccc(OC)c(/C=C/C(=O)N/N=C/c2ccccc2)c1` please. 488

Quote GI50 reported for `COc1ccc(OC)c(/C=C/C(=O)N/N=C/c2ccc(Cl)cc2)c1` please. 48.8

Quote GI50 reported for `COc1ccc(OC)c(/C=C/c2nnc(S)n2-c2ccc(Cl)cc2)c1` please. 4950

* * *

Test system: NCI/ADR-RES
Assay: Anticancer activity against Homo sapiens (human) NCI/ADR-RES cells after 48 hr by SRB assay
Type: functional
I'd appreciate it if you could supply GI50 values for the items below.
Just the number please, in µM, no unit attached.

Quote GI50 reported for `COc1ccc(OC)c(/C=C/c2nnc(Nc3ccc(Cl)cc3)o2)c1` please. 7.62

Quote GI50 reported for `COc1ccc(OC)c(/C=C/C(=O)N/N=C/c2ccc(Cl)cc2)c1` please. 0.0391

Quote GI50 reported for `COc1ccc(OC)c(/C=C/c2nnc(S)n2-c2ccc(Cl)cc2)c1` please. 3.63

Quote GI50 reported for `COc1ccc(OC)c(/C=C/C(=O)N/N=C/c2ccccc2)c1` please. 1.46

* * *

Tested on: KM12
Test: Anticancer activity against Homo sapiens (human) KM12 cells after 48 hr by SRB assay
Assay type: functional
Conditions: KM12, 48 h, read-out: LC50 (the source's name)
measurement label: CC50

Quote CC50 reported for `COc1ccc(OC)c(/C=C/C(=O)N/N=C/c2ccc(Cl)cc2)c1` please. > 100 µM

Quote CC50 reported for `COc1ccc(OC)c(/C=C/C(=O)N/N=C/c2ccccc2)c1` please. 29.4 µM

Quote CC50 reported for `COc1ccc(OC)c(/C=C/c2nnc(S)n2-c2ccc(Cl)cc2)c1` please. > 100 µM

Quote CC50 reported for `COc1ccc(OC)c(/C=C/c2nnc(Nc3ccc(Cl)cc3)o2)c1` please. > 100 µM

* * *

I'd appreciate it if you could supply TGI values for the items below.
Test system: ACHN
Assay: Anticancer activity against Homo sapiens (human) ACHN cells after 48 hr by SRB assay
Type: functional

Quote TGI reported for `COc1ccc(OC)c(/C=C/C(=O)N/N=C/c2ccc(Cl)cc2)c1` please. > 100 µM

Quote TGI reported for `COc1ccc(OC)c(/C=C/c2nnc(S)n2-c2ccc(Cl)cc2)c1` please. > 100 µM

Quote TGI reported for `COc1ccc(OC)c(/C=C/C(=O)N/N=C/c2ccccc2)c1` please. > 100 µM

Quote TGI reported for `COc1ccc(OC)c(/C=C/c2nnc(Nc3ccc(Cl)cc3)o2)c1` please. 19.9 µM

* * *

Tested on: HL-60(TB)
Assay: Growth inhibition of Homo sapiens (human) HL-60(TB) cells at 10 uM after 48 hr by SRB assay
Assay type: functional
Conditions: HL-60, 48 h, read-out: GI
I'd appreciate it if you could supply inhibition of growth at 10 µM values for the items below.
Answer shape: numeric part, then the unit.

Quote inhibition of growth at 10 µM reported for `COc1ccc(OC)c(/C=C/c2nnc(S)n2-c2ccc(Cl)cc2)c1` please. 95.7%

Quote inhibition of growth at 10 µM reported for `COc1ccc(OC)c(/C=C/C(=O)N/N=C/c2ccc(Cl)cc2)c1` please. 79.9%

Quote inhibition of growth at 10 µM reported for `COc1ccc(OC)c(/C=C/c2nnc(SC)n2-c2ccc(Cl)cc2)c1` please. 34.3%

Quote inhibition of growth at 10 µM reported for `COc1ccc(OC)c(/C=C/C(=O)N/N=C/c2ccccc2)c1` please. 53.6%

* * *

System: ACHN
Test: Growth inhibition of Homo sapiens (human) ACHN cells at 10 uM after 48 hr by SRB assay
Format: functional
Settings: read-out: GI
measurement label: inhibition of growth at 10 µM (%)
Just the number please, in %, no unit attached.

GET inhibition of growth at 10 µM | system: ACHN | item: `COc1ccc(OC)c(/C=C/C(=O)N/N=C/c2ccc(Cl)cc2)c1` 51.6

GET inhibition of growth at 10 µM | system: ACHN | item: `COc1ccc(OC)c(/C=C/C(=O)N/N=C/c2ccccc2)c1` 37.2

GET inhibition of growth at 10 µM | system: ACHN | item: `COc1ccc(OC)c(/C=C/c2nnc(SC)n2-c2ccc(Cl)cc2)c1` 32.1

GET inhibition of growth at 10 µM | system: ACHN | item: `COc1ccc(OC)c(/C=C/c2nnc(Nc3ccc(Cl)cc3)o2)c1` 67.4

* * *

I'd appreciate it if you could supply inhibition of growth at 10 µM values for the items below.
Test system: NCI-H23
Assay: Growth inhibition of Homo sapiens (human) NCI-H23 cells at 10 uM after 48 hr by SRB assay
Type: functional
Settings: NCI-H23, 48 h, read-out: GI

Quote inhibition of growth at 10 µM reported for `COc1ccc(OC)c(/C=C/C(=O)N/N=C/c2ccccc2)c1` please. 34.9%

Quote inhibition of growth at 10 µM reported for `COc1ccc(OC)c(/C=C/c2nnc(SC)n2-c2ccc(Cl)cc2)c1` please. 40.3%

Quote inhibition of growth at 10 µM reported for `COc1ccc(OC)c(/C=C/c2nnc(S)n2-c2ccc(Cl)cc2)c1` please. 51.3%

Quote inhibition of growth at 10 µM reported for `COc1ccc(OC)c(/C=C/C(=O)N/N=C/c2ccc(Cl)cc2)c1` please. 65.2%

* * *

I'd appreciate it if you could supply GI50 values for the items below.
System: EKVX
Assay: Anticancer activity against Homo sapiens (human) EKVX cells after 48 hr by SRB assay
Format: functional
Just the number please, in µM, no unit attached.

Quote GI50 reported for `COc1ccc(OC)c(/C=C/c2nnc(S)n2-c2ccc(Cl)cc2)c1` please. 30

Quote GI50 reported for `COc1ccc(OC)c(/C=C/C(=O)N/N=C/c2ccccc2)c1` please. 1.59

Quote GI50 reported for `COc1ccc(OC)c(/C=C/c2nnc(Nc3ccc(Cl)cc3)o2)c1` please. 40.5

Quote GI50 reported for `COc1ccc(OC)c(/C=C/C(=O)N/N=C/c2ccc(Cl)cc2)c1` please. 0.816

* * *

System: NCI-H460
Test: Anticancer activity against Homo sapiens (human) NCI-H460 cells after 48 hr by SRB assay
Format: functional
Settings: NCI-H460, 48 h
I'd appreciate it if you could supply TGI values for the items below.
Just the number please, in µM, no unit attached.

Quote TGI reported for `COc1ccc(OC)c(/C=C/C(=O)N/N=C/c2ccc(Cl)cc2)c1` please. 13.8

Quote TGI reported for `COc1ccc(OC)c(/C=C/C(=O)N/N=C/c2ccccc2)c1` please. 5.62

* * *

Tested on: T47D
Assay: Anticancer activity against Homo sapiens (human) T47D cells after 48 hr by SRB assay
Type: functional
measurement label: GI50 (µM)
Just the number please, in µM, no unit attached.

Quote GI50 reported for `COc1ccc(OC)c(/C=C/C(=O)N/N=C/c2ccc(Cl)cc2)c1` please. 0.16

Quote GI50 reported for `COc1ccc(OC)c(/C=C/C(=O)N/N=C/c2ccccc2)c1` please. 4.86

Quote GI50 reported for `COc1ccc(OC)c(/C=C/c2nnc(Nc3ccc(Cl)cc3)o2)c1` please. 2.54

Quote GI50 reported for `COc1ccc(OC)c(/C=C/c2nnc(S)n2-c2ccc(Cl)cc2)c1` please. 4.5

These entries and their values trace back to ChEMBL document CHEMBL3046389.
